System: TK-10 renal
PROTOCOL_SUMMARY: NCI tumour cell line growth inhibition, 48 h

COMPOUND: CCOC(=O)N(C)C(=C(F)F)C(F)(F)F
TGI: 97.8 µM
--
COMPOUND: N#C/C(=C\c1cc(O)ccc1O)C(N)=O
TGI: > 100 µM
--
COMPOUND: Cc1ccc2nc(-c3ccc(NC(=O)c4ccc(N)cc4)c(S(=O)(=O)O)c3)sc2c1
TGI: > 100 µM
--
COMPOUND: CC/C(=N/O)c1ccc2[nH]c3c(C)cc([N+](=O)[O-])c(C)c3c2c1
TGI: > 100 µM
--
COMPOUND: COc1cccc(C=C2N=C(c3ccccc3)N(n3c(-c4ccccc4)nc4ccccc4c3=O)C2=O)c1
TGI: > 100 µM
--
COMPOUND: COc1cccc(C2=C(c3cn(C)c4cc(F)ccc34)C(=O)NC2=O)c1
TGI: > 25 µM
--
COMPOUND: N#Cc1ccccc1C#C/C=C\C#CC#C/C=C\C#Cc1ccccc1C#N
TGI: 83 µM
--
COMPOUND: O=C(COc1ccc(OCC(=O)N2C(=O)CN(c3ccccc3)C2=S)cc1)N1C(=O)CN(c2ccccc2)C1=S
TGI: > 100 µM
--
COMPOUND: CCN(CC)CCCNc1ccc([N+](=O)[O-])c2nc3ccc(OC)cc3c(N)c12
TGI: > 10 µM
--
COMPOUND: Cn1c2[n+](c3nc(N)[nH]c(=O)c31)C1OC(C2)C(O)C1O (stereo not drawn)
TGI: > 100 µM
--
COMPOUND: CN(C)C(=O)OC1=CC2CCC(C1)N2C (stereo not drawn)
TGI: > 100 µM
--
COMPOUND: CN=C(N)N=Nc1c(O)[nH]c2ccccc12
TGI: > 100 µM
--
COMPOUND: O=C(Nc1ccccc1C(F)(F)F)c1ccc(NC2=C(Cl)C(=O)N(Cc3ccccc3)C2=O)cc1
TGI: 52.5 µM
--
COMPOUND: CN(C)CCn1cnc2ncccc2c1=O
TGI: > 100 µM
--
COMPOUND: CC(=O)Nc1ccc(/C=C2\N=C(c3ccccc3)OC2=O)cc1
TGI: > 100 µM
--
COMPOUND: COc1ccc(-n2c3c(c4cc(O)ccc42)Cc2ccccc2C3=O)cc1
TGI: > 100 µM
--
COMPOUND: COc1ccc2nc(-c3ccccc3)cc(Nc3cccc(C(C)=O)c3)c2c1
TGI: 28.5 µM
--
COMPOUND: CC(C)[Si]1(C(C)C)OCC2OC(n3c(C(=O)c4ccccc4)cc(=O)[nH]c3=O)CC2O[Si](C(C)C)(C(C)C)O1 (stereo not drawn)
TGI: 9.23 µM
--
COMPOUND: CCCCCCCCCC(CCCC(O)CC(=O)O)OC1OC(COC2OC(C)C(OC(C)=O)C(O)C2O)C(O)C(O)C1OC1OC(CO)C(O)C(O)C1OC1OC(C)C(OC(=O)CC(C)C)C(O)C1O (stereo not drawn)
TGI: > 35 µM
--
COMPOUND: COC1=C(OC)C(=O)C(Sc2ccc3ccccc3c2)=CC1=O
TGI: 27 µM
--
COMPOUND: CN(NC1OC(CO)C(O)C(O)C1O)c1ccccc1 (stereo not drawn)
TGI: > 100 µM
--
COMPOUND: CC(C)CC1c2[nH]c3ccccc3c2C[C@H]2C(=O)NC(CCCCNC(=O)OC(C)(C)C)C(=O)N12 (stereo partly drawn)
TGI: > 100 µM
--
COMPOUND: CCOC(=O)c1c(-c2cccc(Cl)c2)c(C(=O)OC)c(C)c2sc(C=O)nc12
TGI: 50 µM
--
COMPOUND: CC(C)N(C(=O)C12C3C4C1C1C2C3C41I)C(C)C (stereo not drawn)
TGI: > 100 µM
--
COMPOUND: CN1CCN(c2ccc(NC(=O)c3cncnc3Nc3ccc(OCc4cccc(F)c4)c(Cl)c3)cc2)CC1
TGI: > 50 µM
--
COMPOUND: COc1cc(C2C(C(=O)Nc3ccc([N+](=O)[O-])cc3)=C(C)NC(C)=C2C(=O)Nc2ccc([N+](=O)[O-])cc2)ccc1O
TGI: 68.7 µM
--
COMPOUND: O=C1/C(=C/c2[nH]ncc2-c2ccc(Cl)cc2)C(=O)N(c2ccccc2)C1c1ccccc1 (stereo not drawn)
TGI: > 100 µM
--
COMPOUND: CC1(C)OCN(c2ccc(S(N)(=O)=O)cc2)Cn2c1nc1ccccc12
TGI: > 100 µM
--
COMPOUND: O/C(=C\c1nc2ccccc2nc1/C=C(\O)c1ccc(F)cc1)c1ccc(F)cc1
TGI: > 100 µM
--
COMPOUND: CCCCOCOc1ccccc1P1(=O)COc2ccccc2OC1
TGI: 94.1 µM
--
COMPOUND: COc1cc2c(cc1O)CN1CCC23C=C[C@@H](O)CC13 (stereo partly drawn)
TGI: > 100 µM
--
COMPOUND: Cc1cc2ccc(OC(=O)c3ccc(N=C(N)N)cc3)cc2oc1=O
TGI: 49.8 µM
--
COMPOUND: COC1[C@H](NC(=O)OC(C)(C)C)C(=O)N1Cc1ccccc1 (stereo partly drawn)
TGI: > 100 µM
--
COMPOUND: COC(=O)c1cc(NC(=O)c2cc(NC(=O)Cc3c[nH]c4ccccc34)cn2C)cn1C
TGI: > 100 µM
--
COMPOUND: Nc1nnc(CCC(=O)Nc2cc(Cl)ccc2Cl)n1N
TGI: > 100 µM
--
COMPOUND: CCN(CC)CCC1(C2CCCCC2)CCC(=O)NC1=O (stereo not drawn)
TGI: > 100 µM
--
COMPOUND: Clc1ccc2ncc(-c3cccc(NC4CNC4)n3)n2c1
TGI: 93.3 µM
--
COMPOUND: Nc1nnnc2nc[nH]c12
TGI: > 41.5 µM
